- ASSAYED TARGET: human (h) α1β1γδ nAChR (Homo sapiens, UniProt P02708+P07510+P11230+Q07001)
- Construct: host or cells: Xenopus laevis oocytes, cRNA injected
- Sequence (P11230 24-501): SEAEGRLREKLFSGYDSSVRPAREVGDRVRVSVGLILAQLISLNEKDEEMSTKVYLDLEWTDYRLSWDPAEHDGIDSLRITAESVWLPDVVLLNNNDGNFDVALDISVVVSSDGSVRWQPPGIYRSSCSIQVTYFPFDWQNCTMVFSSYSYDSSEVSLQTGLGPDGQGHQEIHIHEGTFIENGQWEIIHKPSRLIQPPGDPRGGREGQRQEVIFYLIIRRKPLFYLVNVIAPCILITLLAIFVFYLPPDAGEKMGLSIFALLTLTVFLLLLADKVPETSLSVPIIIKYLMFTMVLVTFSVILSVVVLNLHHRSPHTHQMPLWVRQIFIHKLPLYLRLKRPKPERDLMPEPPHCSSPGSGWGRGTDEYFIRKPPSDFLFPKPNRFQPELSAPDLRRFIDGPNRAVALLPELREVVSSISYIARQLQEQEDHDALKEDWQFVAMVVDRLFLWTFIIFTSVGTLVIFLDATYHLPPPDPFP
- Sequence (P07510 23-517): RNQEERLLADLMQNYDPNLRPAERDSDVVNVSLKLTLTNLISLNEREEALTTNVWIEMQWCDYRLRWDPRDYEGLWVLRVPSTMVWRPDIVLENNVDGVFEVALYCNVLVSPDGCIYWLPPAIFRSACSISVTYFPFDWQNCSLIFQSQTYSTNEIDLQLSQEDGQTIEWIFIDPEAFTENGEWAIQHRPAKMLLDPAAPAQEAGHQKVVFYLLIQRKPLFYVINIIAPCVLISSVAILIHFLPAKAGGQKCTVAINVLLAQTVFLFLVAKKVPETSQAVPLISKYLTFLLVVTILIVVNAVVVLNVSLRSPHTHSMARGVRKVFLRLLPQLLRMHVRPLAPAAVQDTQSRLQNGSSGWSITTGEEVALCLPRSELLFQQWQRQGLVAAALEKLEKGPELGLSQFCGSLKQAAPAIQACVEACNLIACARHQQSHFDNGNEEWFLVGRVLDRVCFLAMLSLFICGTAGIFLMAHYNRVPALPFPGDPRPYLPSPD
- Sequence (P02708 21-457): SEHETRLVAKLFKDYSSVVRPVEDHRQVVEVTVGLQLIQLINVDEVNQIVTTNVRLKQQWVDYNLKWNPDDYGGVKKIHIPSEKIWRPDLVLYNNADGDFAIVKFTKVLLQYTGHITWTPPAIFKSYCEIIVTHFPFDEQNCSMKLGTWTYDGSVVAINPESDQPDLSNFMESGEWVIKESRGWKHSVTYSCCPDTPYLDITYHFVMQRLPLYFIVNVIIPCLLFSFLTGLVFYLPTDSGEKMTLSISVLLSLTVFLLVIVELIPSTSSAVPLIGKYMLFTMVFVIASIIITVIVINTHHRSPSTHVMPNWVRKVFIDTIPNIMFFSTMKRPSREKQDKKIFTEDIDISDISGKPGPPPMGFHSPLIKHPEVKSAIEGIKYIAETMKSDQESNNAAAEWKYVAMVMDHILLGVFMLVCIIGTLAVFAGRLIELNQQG
- Sequence (Q07001 22-517): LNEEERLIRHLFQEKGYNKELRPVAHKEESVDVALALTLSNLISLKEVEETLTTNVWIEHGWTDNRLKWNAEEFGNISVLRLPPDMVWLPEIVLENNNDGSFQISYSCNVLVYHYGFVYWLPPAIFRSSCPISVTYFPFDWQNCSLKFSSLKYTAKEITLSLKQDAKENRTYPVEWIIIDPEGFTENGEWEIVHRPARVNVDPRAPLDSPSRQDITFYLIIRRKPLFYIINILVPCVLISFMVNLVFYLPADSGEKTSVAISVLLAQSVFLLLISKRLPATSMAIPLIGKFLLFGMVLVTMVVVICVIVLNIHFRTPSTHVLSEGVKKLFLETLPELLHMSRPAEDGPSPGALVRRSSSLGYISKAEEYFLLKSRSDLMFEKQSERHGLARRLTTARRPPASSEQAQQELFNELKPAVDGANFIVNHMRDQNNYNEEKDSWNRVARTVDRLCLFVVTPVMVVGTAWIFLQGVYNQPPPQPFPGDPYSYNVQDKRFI
- METHOD NOTES: Two-electrode voltage clamp, inhibition of ACh-evoked currents at hα1β1γδ nAChR in Xenopus oocytes
- Assay type: cell-based
- CONDITION PARAMETERS: compound 100 µM; currents activated by 5 μM ACh; ratio ACh + compound to ACh alone; mean ± SD, n = 6–11
Square brackets hold non-standard residues; d marks the D form. Peptide text beside a SMILES is read from it. Tpi = O=C(O)[C@@H]1Cc2c([nH]c3ccccc23)CN1
OBSERVED PROPERTY: Relative current amplitude (h)α1β1γδ
The reply should be a number, written without any unit.

If you can, please state the reported Relative current amplitude (h)α1β1γδ value of COC(=O)[C@@H](Cc1ccc(O)cc1)NC(=O)[C@@H](NC(=O)[C@H](NC(=O)[C@@H]1Cc2c([nH]c3ccccc23)CN1)C(C)C)C(C)C [Compound 6, psegynamide F] (H-[Tpi][dV]V[dY]-OMe) . 0.802

If you can, please state the reported Relative current amplitude (h)α1β1γδ value of COC(=O)[C@@H](Cc1ccccc1)NC(=O)[C@@H](NC(=O)[C@H](NC(=O)[C@@H]1Cc2c([nH]c3ccccc23)CN1)C(C)C)C(C)C [Compound 5, psegynamide E] . 0.799

If you can, please state the reported Relative current amplitude (h)α1β1γδ value of CC(C)[C@H](NC(=O)[C@H](NC(=O)[C@@H](N)Cc1c[nH]c2ccccc12)C(C)C)C(=O)N[C@H](Cc1ccc(O)cc1)C(=O)O [Compound 3, psegynamide C] (H-W[dV]V[dY]-OH) . 0.861
